targetEntity: Human FXIIa (Homo sapiens, UniProt P00748)
Sequence (P00748 373-615 limits assumed): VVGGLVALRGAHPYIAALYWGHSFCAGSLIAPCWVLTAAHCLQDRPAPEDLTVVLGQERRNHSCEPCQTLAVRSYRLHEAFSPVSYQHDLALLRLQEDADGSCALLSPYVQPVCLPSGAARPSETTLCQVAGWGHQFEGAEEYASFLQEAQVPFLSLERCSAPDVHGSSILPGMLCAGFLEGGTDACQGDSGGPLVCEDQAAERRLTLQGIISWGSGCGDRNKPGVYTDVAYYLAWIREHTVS
Sequence (P00748 20-372 partner limits assumed): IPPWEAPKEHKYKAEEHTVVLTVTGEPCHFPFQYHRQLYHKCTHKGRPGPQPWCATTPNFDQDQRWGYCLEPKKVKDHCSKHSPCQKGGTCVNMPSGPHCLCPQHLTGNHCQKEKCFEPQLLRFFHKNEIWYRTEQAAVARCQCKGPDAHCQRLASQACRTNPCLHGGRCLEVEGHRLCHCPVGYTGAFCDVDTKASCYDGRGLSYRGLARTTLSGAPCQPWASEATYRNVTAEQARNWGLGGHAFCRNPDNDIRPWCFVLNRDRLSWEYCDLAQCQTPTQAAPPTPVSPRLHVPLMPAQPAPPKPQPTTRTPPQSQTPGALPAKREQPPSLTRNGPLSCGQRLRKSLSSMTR
readoutName: IC50 (µM)

Below: 2 compounds and their reported IC50.
Nc1c2c(nn1C(=O)[C@H]1CCNc3c(Cl)cccc31)C[C@H](O)CC2 (single isomer, unassigned)	0.04
Cc1cccc2c1NCC[C@@H]2C(=O)n1nc2c(c1N)C[C@H](O)CC2 (single isomer, unassigned)	0.05

[P] Nc1nn(C(=O)c2cccc3[nH]c(C4CC4)cc23)c2c1CCCC2 (single isomer, unassigned)
[Q] CCc1cc2c(C(=O)n3nc4c(c3N)CCCC4)cccc2[nH]1
q: Lab notebook, comparison: P versus Q , higher IC50 goes to which? Your answer should be the label attached to the chosen record.
a: P
(P: 30 µM, Q: 0.01 µM)

[I] COc1ccc2c(c1)NCCC2C(=O)n1nc2c(c1N)CCCC2 (stereo not drawn)
[II] Cc1[nH]c2ccccc2c1C(=O)n1nc2c(c1N)CCCC2
q: Param metric = IC50; output whichever of I , II has the minimum value. Your answer should be the label attached to the chosen record.
a: I
(I: 0.25 µM, II: 11 µM)

[I] CCc1cc2c(C(=O)n3nc(N)c4c3CCCC4)cccc2n1CC (single isomer, unassigned)
[II] CO[C@@H]1CCc2nn(C(=O)[C@@H]3CCNc4ccc(F)cc43)c(N)c2C1 (single isomer, unassigned)
q: Param metric = IC50; output whichever of I , II has the minimum value. Your answer should be the label attached to the chosen record.
a: II
(II: 0.09 µM, I: 35 µM)

[a] Nc1c2c(nn1C(=O)c1cccc3[nH]c(Cl)cc13)CCCC2 (single isomer, unassigned)
[b] Nc1c2c(nn1C(=O)c1cccc3[nH]ncc13)CCCC2
[c] Cc1cccc2c1NCCC2C(=O)n1nc(N)c2c1CCC=C2 (stereo not drawn)
q: Order the records by IC50, with each subsequent value no larger than the one before. The response must list the labels following the requested ordering.
a: c, b, a
(c: 7.5 µM, b: 0.03 µM, a: 0.01 µM)

====

Below are IC50 values recorded for UniProt P00748.
readoutName: IC50 (nM)

Below: 3 molecules and their reported IC50.
CCN1CCC(C(=O)n2nc3c(c2N)CCCC3)c2ccccc21 (single isomer, unassigned)	500
Nc1nn(C(=O)c2cccc3[nH]c(Cl)cc23)c2c1CCCC2 (single isomer, unassigned)	29000
CO[C@H]1CCc2nn(C(=O)[C@H]3CCNc4ccc(F)cc43)c(N)c2C1 (single isomer, unassigned)	2000

[I] Nc1c2c(nn1C(=O)C1CCCc3[nH]c(Br)cc31)CCCC2 (single isomer, unassigned)
[II] Nc1nn(C(=O)[C@H]2CCNc3ccc(F)cc32)c2c1C[C@@H](O)CC2 (single isomer, unassigned)
[III] Cc1cc2c(C(=O)N3N=C(N)C4CCCCC43)cccc2[nH]1 (stereo not shown)
[IV] Cn1ccc2c(C(=O)n3nc4c(c3N)CCCC4)cccc21 (single isomer, unassigned)
q: Order the records by IC50, with each subsequent value no larger than the one before. The response must list the labels following the requested ordering.
a: III, II, IV, I

[1] Cc1cccc2c1NCC[C@@H]2C(=O)n1nc2c(c1N)C[C@@H](N)CC2 (relative stereo)
[2] C=Cc1cc2c(C(=O)n3nc4c(c3N)CCCC4)cccc2[nH]1 (single isomer, unassigned)
q: Lab notebook, comparison: 1 versus 2 , higher IC50 goes to which? Your answer should be the label attached to the chosen record.
a: 1

====

targetEntity: Human FXIIa (Homo sapiens, UniProt P00748)
Sequence (P00748 373-615 limits assumed): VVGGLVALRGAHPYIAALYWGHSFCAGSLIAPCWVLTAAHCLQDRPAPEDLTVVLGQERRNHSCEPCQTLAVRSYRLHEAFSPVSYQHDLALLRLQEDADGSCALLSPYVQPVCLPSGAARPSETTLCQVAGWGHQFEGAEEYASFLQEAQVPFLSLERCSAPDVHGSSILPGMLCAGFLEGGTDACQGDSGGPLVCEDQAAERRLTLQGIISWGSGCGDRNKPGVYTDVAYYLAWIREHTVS
Sequence (P00748 20-372 partner limits assumed): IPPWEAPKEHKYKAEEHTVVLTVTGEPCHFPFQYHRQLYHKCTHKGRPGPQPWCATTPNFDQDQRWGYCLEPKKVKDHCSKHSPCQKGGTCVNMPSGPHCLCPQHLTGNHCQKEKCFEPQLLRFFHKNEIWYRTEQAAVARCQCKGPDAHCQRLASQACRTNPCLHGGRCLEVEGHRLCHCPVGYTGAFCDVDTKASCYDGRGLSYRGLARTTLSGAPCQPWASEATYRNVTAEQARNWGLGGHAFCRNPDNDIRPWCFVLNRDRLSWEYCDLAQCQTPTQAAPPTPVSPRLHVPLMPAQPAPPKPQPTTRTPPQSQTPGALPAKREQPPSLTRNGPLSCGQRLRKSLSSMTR
readoutName: IC50 (µM)

Below: 5 compounds and their reported IC50.
COC1CCc2c(c(N)nn2C(=O)c2cccc3[nH]c(C)cc23)C1 (stereo not shown)	10
Nc1c2c(nn1C(=O)[C@@H]1CCNc3ccc(F)cc31)CC[C@@H](F)C2 (single isomer, unassigned)	16
Cc1cc2c(C(=O)n3ncc4c3CCCC4)cccc2[nH]1	6
Nc1c2c(nn1C(=O)c1ccnc3ccccc13)CCCC2	13
Cc1cc2c(C(=O)n3nc4c(c3N)CCCC4)cccc2o1 (single isomer, unassigned)	0.06

[A] Cc1nn(C(=O)c2cccc3[nH]ccc23)c2c1CCCC2 (single isomer, unassigned)
[B] CO[C@@H]1CCc2nn(C(=O)[C@H]3CCNc4ccc(F)cc43)c(N)c2C1 (single isomer, unassigned)
[C] Nc1c2c(nn1C(=O)[C@H]1CCNc3ccc(F)cc31)C[C@@H](O)CC2 (single isomer, unassigned)
[D] Nc1nn(C(=O)C2CCNc3ccc(F)cc32)c2c1CC(F)(F)CC2 (stereo not shown)
[E] Nc1c2c(nn1C(=O)C1CCNc3ccccc31)CCCC2 (single isomer, unassigned) [Example 76]
q: Please produce an ascending ranking of these compounds based on IC50. The response must list the labels following the requested ordering.
a: E, C, D, B, A

[1] Nc1c2c(nn1C(=O)[C@H]1CCCc3[nH]c(Cl)cc31)CC[C@H](O)C2 (single isomer, unassigned)
[2] Nc1c2c(nn1C(=O)[C@@H]1CCNc3ccc(F)cc31)CC[C@H](O)C2 (relative stereo)
q: Param metric = IC50; output whichever of 1 , 2 has the minimum value. Your answer should be the label attached to the chosen record.
a: 1
(1: 0.35 µM, 2: 1.2 µM)

[I] Nc1c2c(nn1C(=O)[C@H]1CCNc3ccc(F)cc31)CC[C@H](O)C2 (single isomer, unassigned)
[II] CCC(C)n1ccc2c(C(=O)n3nc4c(c3N)CCCC4)cccc21 (stereo not shown)
q: Param metric = IC50; output whichever of I , II has the minimum value. Your answer should be the label attached to the chosen record.
a: II
(II: 2.5 µM, I: 33 µM)

====

targetEntity: UniProt P00748
pIC50: −log10 of the molar value.
readoutName: pIC50

[P] Nc1c2c(nn1C(=O)[C@H]1CCCc3[nH]c(Cl)cc31)CC[C@@H](O)C2 (single isomer, unassigned) [Example 126]
[Q] Nc1c2c(nn1C(=O)[C@@H]1CCNc3c(Cl)cccc31)C[C@@H](O)CC2 (single isomer, unassigned) [Example 206]
[R] Nc1c2c(nn1C(=O)C1CCNc3ccc(F)cc31)CCC(F)(F)C2 (single isomer, unassigned) [Example 173]
[S] Cc1cccc2c1NCC[C@H]2C(=O)n1nc2c(c1N)CC[C@H](O)C2 (single isomer, unassigned) [Example 197]
[T] CN1CCC(C(=O)n2nc3c(c2N)CCCC3)c2cccnc21 (stereo not drawn) [Example 87]
q: Rank the 5 compounds: largest pIC50 first, smallest last. The response must list the labels following the requested ordering.
a: P, R, S, Q, T
(P: 7.70, R: 7.00, S: 5.82, Q: 5.55, T: 5.30)
